Collected from the literature: Ki of various compounds toward 5-hydroxytryptamine receptor 4 (Cavia porcellus, UniProt O70528).
Reported endpoint: Ki (nM)

[P] CCCN1CCN(CCNC(=O)n2c(=O)n(C(C)C)c3ccccc32)CC1
[Q] CCCCN1CCC(COc2nc3ccccc3c3c2CCCCN3)CC1
[R] COc1cc2c3c(cccc3n1)C(=O)N(CCCN1CCCCC1)C2=O
[S] CNC(=O)Cn1c2c(c3ccccc31)CCN(CCCCC13CCCc4cccc(c41)NC3=O)C2 (stereo not drawn)
Prompt line: Hi! Can you put these in order of Ki, lowest number first? Show the ranking through the labels, in the order asked for.
Response line: Q, R, P, S
(Q: 16.3 nM, R: 44 nM, P: 87.3 nM, S: 490 nM)

[I] CCCn1c(=O)n(C(=O)NCCN2CCN(C)CC2)c2ccccc21
[II] COc1cc(N)c(Cl)cc1C(=O)OCCN1CCC(NC(=O)NCCOCCOCCOCCOCCOCCOCCOCCOCCN=[N+]=[N-])CC1
Prompt line: Of I and II , which shows the smaller Ki value? To answer, give the label that identifies your chosen option.
Response line: II

[I] COc1cc(COc2cc(N)c(Cl)cc2C(=O)CCC2CCN(CCNS(C)(=O)=O)CC2)cc(OC)c1
[II] Cc1cccc2c1n(C(C)C)c(=O)n2C(=O)NCCN1CCN(C)CC1
[III] O=C(O)CN1CCN(c2ccc3ccccc3n2)CC1
[IV] CCn1c(=O)n(C(=O)NCCN2CCN(C(C)C)CC2)c2ccccc21
[V] Fc1cccc2c1nc(OCC1CCN(CCCC(F)(F)F)CC1)c1cccnc12
Prompt line: Order the records by Ki, with each subsequent value no larger than the one before. Show the ranking through the labels, in the order asked for.
Response line: III, II, IV, V, I
(III: 5750 nM, II: 216 nM, IV: 25.2 nM, V: 4.2 nM, I: 0.741 nM)

[I] CCCCN1CCC(COc2nc3ccsc3n3cccc23)CC1
[II] COc1cc(COc2cc(N)c(Cl)cc2C(=O)CCC2CCN(CCCNS(C)(=O)=O)CC2)cc(OC)c1
Prompt line: Given the listed records, identify the one among I and II with higher Ki. To answer, give the label that identifies your chosen option.
Response line: I

[a] O=C(OCCN1CCCCC1)c1c[nH]c2ccccc12
[b] Cc1csc2nc(OCCCN3CCCCC3)c3cccn3c12
Prompt line: Of a and b , which shows the smaller Ki value? To answer, give the label that identifies your chosen option.
Response line: a
